experiment-notes: qHTS Screen of the MIPE 4.0 Collection Against Ewings Sarcoma (TC32) (AID 1259256); also: nearly all actives have a fitted effect of over 45% in size
condition-context: TC32 Ewing sarcoma viability, CellTiter-Glo, 48 h; series mostly up to 45.8 µM
Records with an inconclusive call do not appear. The source made the active and inactive calls. Calls follow the shape of the dose curve; as a rule, active = well fitted inhibition curve with a large enough effect; inconclusive = small, poorly fitted or top-dose-only effect; inactive = no such curve, though single readings can be large or run the other way.
Permitted responses: active, inactive

Record lookup: outcome of this test for "COC1=C(OC)C(=O)C(CC=C(C)CCC=C(C)CCC=C(C)CCC=C(C)CCC=C(C)CCC=C(C)CCC=C(C)CCC=C(C)CCC=C(C)CCC=C(C)C)=C(C)C1=O" ?
inactive

Thanks! And "CS(=O)(=O)N1CCc2c(-c3cnc(N)nc3)nc(N3CCOCC3)nc21" ?
active

Same question for "Cc1cn([C@@H]2O[C@H](CO)[C@@H](O)[C@H]2F)c(=O)[nH]c1=O" please.
inactive

Moving on to the next compound: "FC(F)c1nc2ccccc2n1-c1nc(N2CCOCC2)nc(N2CCOCC2)n1"
active

"Nc1nc2c(c(=O)[nH]1)N(C=O)[C@H](CNc1ccc(C(=O)N[C@@H](CCC(=O)O)C(=O)O)cc1)CN2" ?
inactive

Same again, this time with CC(N[C@H]1CCCC[C@H]1NC(=O)c1ccc(Cl)cc1)c1cccc2ccccc12 (stereo partly specified)
inactive

Same question for "CCN(CC)CCCCNc1ncc2c(n1)N(C)C(=O)N(c1c(Cl)c(OC)cc(OC)c1Cl)C2" please.
active

What about "CC(=O)[C@]1(O)Cc2c(O)c3c(c(O)c2[C@@H](O[C@H]2C[C@H](N)[C@@H](O)[C@H](C)O2)C1)C(=O)c1ccccc1C3=O" ?
active

Repeat for the following compound: "CCCCCCCCCCCCc1ccc(S(=O)(=O)Nc2nncs2)cc1"
inactive

"O=C1c2cccc(O)c2C(=O)c2c(O)cc(CO)cc21" ?
inactive

Then "O=C(c1ccc(F)cc1)N1CCC[C@H](c2nc(-c3ccc(F)cc3)no2)C1" ?
inactive

"CC(C=CC1=C(C)CCCC1(C)C)=CC=CC(C)=CC(=O)Nc1ccc(O)cc1" ?
active

Next record, please: "Cn1cc(CNCC2CCN(c3ncc(C(=O)NO)cn3)CC2)c2ccccc21"
active

Consider next the compound "CC(=O)OC[C@@H]1O[C@@H](n2ccc(=O)[nH]c2=O)[C@H](OC(C)=O)[C@H]1OC(C)=O" in the same way.
inactive

For "OCc1ccccc1O[C@@H]1O[C@H](CO)[C@H](O)[C@H](O)[C@H]1O" then?
inactive

# repeat for CC(=O)O[C@@]12CO[C@H]1C[C@H](O)[C@@]1(C)C(=O)[C@H](O)C3=C(C)[C@@H](OC(=O)C(O)[C@@H](NC(=O)OC(C)(C)C)c4ccccc4)C[C@@](O)([C@@H](OC(=O)c4ccccc4)[C@@H]21)C3(C)C (stereo partly specified)
inactive

###

experiment-notes: Quantitative High-Throughput drug screen in 47 multiple myeloma cell lines against the NCATS MIPE library collection: KMM1_JCRB cell viability assay (AID 1918960); also: nearly all actives have a fitted effect of over 30% in size
condition-context: KMM1 myeloma viability, CellTiter-Glo ATP luminescence, 48 h; series mostly up to 45.8 µM
Results filed as inconclusive are left out. Activity calls are given as the source filed them. Calls come from the whole dose curve; as a rule, active = well fitted cell-killing curve with a large enough effect; inconclusive = small, poorly fitted or top-dose-only effect, or effect the other way; inactive = no such curve, though single readings can be large or run the other way.
Result category, one only: 1 = active, 0 = inactive

# lookup: test call for "C[C@H](NC(=O)Cc1cc(F)cc(F)c1)C(=O)N[C@H](C(=O)OC(C)(C)C)c1ccccc1"
0

Try "C=CCNC1=C2C[C@@H](C)C[C@H](OC)[C@@H](O)[C@@H](C)C=C(C)[C@H](OC(N)=O)[C@@H](OC)C=CC=C(C)C(=O)NC(=CC1=O)C2=O" next.
1

Thanks! And "Cc1ccc([N+](=O)[O-])cc1S(=O)(=O)N(C)N=Cc1cnc2ccc(Br)cn12" ?
1

Cool, now "C=C1C(=CC=C2CCC[C@]3(C)[C@@H]([C@H](C)CCCC(C)(C)O)CC[C@@H]23)C[C@@H](O)C[C@@H]1O"
1

Now consider "O=C(O)C[C@H](O)C[C@H](O)C=Cc1c(C2CC2)nc2ccccc2c1-c1ccc(F)cc1" and answer again.
1

Next entry: "COc1cc([C@@H]2c3cc4c(cc3[C@@H](O[C@@H]3O[C@@H]5CO[C@@H](c6cccs6)O[C@@H]5[C@H](O)[C@@H]3O)[C@H]3COC(=O)[C@H]23)OCO4)cc(OC)c1O"
1

// query: "CN1C(C(=O)Nc2ccccn2)=C(O)c2sc(Cl)cc2S1(=O)=O"
0

###

experiment-notes: Quantitative High-Throughput drug screen in 47 multiple myeloma cell lines against the NCATS MIPE library collection: JIM3_ECACC cell viability assay (AID 1918963; also: nearly all actives have a fitted effect of over 35% in size)
condition-context: JIM3 myeloma viability, CellTiter-Glo ATP, 48 h; series mostly up to 45.8 µM
Inconclusive results are not listed. Activity calls are given as the source filed them. The call rests on the fitted dose curve; in most records, active means well fitted cell-killing curve with a large enough effect; inconclusive means small, poorly fitted or top-dose-only effect; inactive means no such curve, though single readings can be large or run the other way. Positions of bridges follow the written chain, without caps; N, C: chain ends. Non-standard residues stand in square brackets, D forms with d. Residues, ends and D or L forms follow the SMILES beside them. ξ: configuration not given here. *: point of attachment. Octanoyl(6-Me) = CCC(C)CCCCC(=O)*; ξThr(3R) = C[C@@H](O)C(N)C(=O)O; dDab = NCC[C@@H](N)C(=O)O; Dab = NCC[C@H](N)C(=O)O
Use one of these outcomes when replying: 1 = active, 0 = inactive

Test call for this compound, please: "CN[C@H]1[C@@H](O)[C@@H]2O[C@@H]3O[C@H](C)CC(=O)[C@]3(O)O[C@@H]2[C@@H](NC)[C@H]1O"
1

// next record CCC(C)CCCCC(=O)N[C@@H](CCN)C(=O)NC(C(=O)N[C@H](CCN)C(=O)N[C@@H]1CCNC(=O)C([C@@H](C)O)NC(=O)[C@@H](CCN)NC(=O)[C@@H](CCN)NC(=O)[C@@H](CC(C)C)NC(=O)[C@H](Cc2ccccc2)NC(=O)[C@H](CCN)NC1=O)[C@@H](C)O (stereo partly drawn) ({Octanoyl(6-Me)}-[Dab][ξThr(3R)][dDab][dDab][Dab]F[dL][dDab][dDab][ξThr(3R)]; lactam 4-C)
0

Again, but for COc1cc(O)c2c(c1)C1OC1C[C@H](O)[C@H](O)C(=O)C=CC[C@H](C)OC2=O (some centres undefined)
1

Param item: "NS(=O)(=O)OC[C@@H]1C[C@@H](n2ccc3c(N[C@H]4CCc5ccccc54)ncnc32)C[C@H]1O"
1

Also, "CN1C(C(=O)Nc2ccccn2)=C(O)c2sc(Cl)cc2S1(=O)=O" please.
1

Same again, this time with "O=C(C=CC=Cc1ccc2c(c1)OCO2)N1CCCCC1"
0

What about this compound? "C[C@@H](Cc1cc2c(c(C(N)=O)c1)N(CCCO)CC2)NCCOc1ccccc1OCC(F)(F)F"
0

Now this one: "N=c1ccn2c(n1)O[C@H]1[C@@H](O)[C@@H](CO)O[C@H]12"
0

Next record, please: "c1ccc(CNc2nc(NCc3ccccc3)c3ccccc3n2)cc1"
1

###

experiment-notes: Quantitative High-Throughput drug screen in 47 multiple myeloma cell lines against the NCATS MIPE library collection: KMS11_JCRBsus cell viability assay (AID 1919873); also: potency is read from the fitted curve at half-maximal effect; nearly all actives have a fitted effect of over 50% in size
condition-context: KMS11 myeloma viability, CellTiter-Glo ATP luminescence, 48 h; series mostly up to 45.8 µM
Records with an inconclusive call do not appear. The source made the active and inactive calls. The call rests on the fitted dose curve; in most records, active means well fitted cell-killing curve with a large enough effect; inconclusive means small, poorly fitted or top-dose-only effect, or effect the other way; inactive means no such curve, though single readings can be large or run the other way.
metric-name: Potency

Field request: Potency | item: "COC1=C2C[C@@H](C)C[C@H](OC)[C@@H](O)[C@@H](C)C=C(C)[C@H](OC(N)=O)[C@@H](OC)C=CC=C(C)C(=O)NC(=CC1=O)C2=O"
83.3 nM (active)

What would you report for "O=C(Nc1cc2cc[nH]c2cn1)c1ccccc1" ?
11800 nM (active)

Now give it for CCC(C(=O)O)C1CCC(C)C(C(C)C(O)C(C)C(=O)C(CC)C2OC3(C=CC(O)[C@@]4(CC[C@](C)(C5CC[C@@](O)(CC)C(C)O5)O4)O3)C(C)CC2C)O1 (some centres not stated) too.
3720 nM (active)

Same question for "Cc1cc(Nc2ncc3c(n2)N(C)C(=O)N(c2cc(NC(=O)c4cccc(C(F)(F)F)c4)ccc2C)C3)n(C)n1" please.
235 nM (active)

Now try "CC(C)C[C@H](NC(=O)[C@@H](NC(=O)c1cccc(-c2ccccc2)n1)[C@@H](C)O)B(O)O" .
13.2 nM (active)

Next: "CC[C@@]1([C@@H]2O[C@@H]([C@H]3O[C@@](O)(CO)[C@H](C)C[C@H]3C)C[C@H]2C)CC[C@H]([C@]2(C)CC[C@]3(C[C@H](O)[C@@H](C)[C@@H]([C@@H](C)[C@@H](OC)[C@H](C)C(=O)O)O3)O2)O1"
288 nM (active)

###

experiment-notes: P-glycoprotein substrates identified in KB-8-5-11 adenocarcinoma cell line, qHTS therapeutic library screen (AID 1346987); also: nearly all actives have a fitted effect of over 65% in size
condition-context: KB-8-5-11 (P-gp overexpressing) viability, CellTiter-Glo, 72 h; series mostly up to 44.5 µM
Inconclusive results are not listed. The source made the active and inactive calls. The call rests on the fitted dose curve; in most records, active means well fitted inhibition curve with a large enough effect; inconclusive means small, poorly fitted or top-dose-only effect; inactive means flat fitted curve, though single readings scatter. Starred links: 1 amine or outer side, 2 acyl side, 3 side chain; linkers in the order of their positions; H or OH if unused. Positions of bridges follow the written chain, without caps; N, C: chain ends. Non-standard residues stand in square brackets, D forms with d. Residues, ends and D or L forms follow the SMILES beside them. Chains are numbered I, II in the order given. *: point of attachment. Actinocin(9to1) = Cc1c2oc3c(C)ccc(C(=O)[*:1])c3nc-2c(C(=O)[*:2])c(N)c1=O; NMeV = CN[CH](C(=O)O)C(C)C; Nva = CCC[C@H](N)C(=O)O; Cbz = O=C(OCc1ccccc1)*; Sar = CNCC(=O)O
Respond using exactly one of the listed classes: active, inactive

Per the assay record, what outcome was assigned to "Cc1cnn(C)c1C(=O)Nc1cc(Nc2ccc3c(C=Cc4ccccn4)n[nH]c3c2)ccc1F" ?
active

Ok, now "C=C1C(=O)O[C@H]2[C@@H]1CCC(C)=CCC[C@@]1(C)O[C@@H]21"
active

Another compound to check: "O=c1[nH]c(=O)n([C@H]2C[C@@H](O)[C@@H](CO)O2)cc1F"
active

Now consider "NC[C@H]1O[C@H](O[C@H]2[C@@H](O)[C@@H](O[C@H]3O[C@H](CO)[C@@H](O)[C@H](N)[C@@H]3O)[C@H](N)C[C@@H]2N)[C@H](N)C[C@H]1O" and answer again.
inactive

Now the same for Cc1c2oc3c(C)ccc(C(=O)NC4C(=O)NC(C(C)C)C(=O)N5CCCC5C(=O)N(C)CC(=O)N(C)C(C(C)C)C(=O)OC4C)c3nc-2c(C(=O)NC2C(=O)NC(C(C)C)C(=O)N3CCCC3C(=O)N(C)CC(=O)N(C)C(C(C)C)C(=O)OC2C)c(N)c1=O (stereo unspecified) (I: TVP[Sar][NMeV] / II: TVP[Sar][NMeV]; ester I:1-I:C, II:1-II:C; linker I:N-II:N via Actinocin(9to1); configuration not given here)
active

And "Cc1cc(C(=O)NOCCO)c(Nc2ccc(I)cc2F)n(C)c1=O" ?
inactive

Continue with Nc1cccc2c1C(=O)N(C1CCC(=O)NC1=O)C2=O (stereo unspecified)
inactive

Next up: "COC(=O)C=CC(=O)OC"
inactive

Now give it for "O=C(c1ccc(F)cc1)N1CCC[C@H](c2nc(-c3ccc(F)cc3)no2)C1" too.
active

Also, COC(=O)C1C2CC3c4[nH]c5cc(OC)ccc5c4CCN3CC2CC(OC(=O)c2cc(OC)c(OC)c(OC)c2)C1OC (stereo unspecified) please.
inactive

Let us now turn to OCC(O)C(O)C(O)CO (stereo unspecified)
inactive

Try this compound next: COc1cc2c(cc1O)CCC1C2CC[C@@]2(C)C1CC[C@@H]2O (stereo partly specified)
active

Same lookup for "CNC(=O)c1cccc(-c2ccc3c(N4CCOC[C@H]4C)nc(N4CCOC[C@H]4C)nc3n2)c1" , please.
active

Would you mind doing CCC[C@@H](C=O)NC(=O)[C@H](CC(C)C)NC(=O)[C@H](CC(C)C)NC(=O)OCc1ccccc1 (Cbz-Leu-Leu-[Nva]-aldehyde) as well?
active

Follow-up entry: "O=C(C[C@@H]1CC=CCCC(=O)O[C@H](c2ccccc2)CNC1=O)NCc1ccc(Cl)cc1"
inactive

For "CCCCCN=C(N)NN=Cc1c[nH]c2ccc(OC)cc12" then?
active

Where do the numbers come from? From PubChem BioAssay (NCATS).
